Value source: a protein production outcome set (Wang et al. 2014)

Test: label from the status in PepcDB records
property label: protein production

Consider the following illustrative entries.
residue sequence: GSSGSSGGYFDAHALAMDYRSLGFRECLAEVARYLSIIEGLDASDPLRVRLVSHLNNYASQREASGPSSG
protein production: not failed
--
residue sequence: MSLRSEQEMMDIFLDFALNDERIRLVTLEGSRTNRNIPPDNFQDYDISYFVTDVESFKENDQWLEIFGKRIMMQKPEDMELFPPELGNWFSYIILFEDGNKLDLTLIPIREAEDYFANNDGLVKVLLDKDSFINYKVTPNDRQYWIKRPTAREFDDCCNEFWMVSTYVVKGLARNEILFAIDHLNEIVRPNLLRMMAWHIASQKGYSFSMGKNYKFMKRYLSNKEWEELMSTYSVNGYQEMWKSLFTCYALFRKYSKAVSEGLAYKYPDYDEGITKYTEGIYCSVKEGHHHHHH
protein production: not failed
--
residue sequence: MAFQVKIHQIRAFVEVARQGSIRGASRMLNMSQPALSKSIQELEEGLAAQLFFRRSKGVTLTDAGESFYQHASLILEELRAAQEDIRQRQGQLAGQINIGMGASISRSLMPAVISRFHQQHPQVKVRIMEGQLVSMINELRQGELDFTINTYYQGPYDHEFTFEKLLEKQFAIFCRPGHPAIGARSIKQLLDYSWTMPTPHGSYYKQLSELLDDQAQTPQVGVVCETFSACISLVAKSDFLSKLPEEMGCDPLHGQGLVMLPVSEILPKAAYYLIQRRDSRQTPLTASLITQFRRECGYLQS
protein production: failed
--
residue sequence: MGIHQYFQSLSDLENIYRCPGKFKYQEHSVAEHSYKVTSIAQFFGAVEEDAGNEVNWRALYEKALNHDYSELFIGDIKTPVKYATTELREMLSEVEESMTKNFISREIPATFQPIYRHLLKEGKDSTLEGKILAISDKVDLLYESFGEIQKGNPENIFVEIYSEALATIYEYREMASVKYFLKEILPDMLAEKGIEKTELPQLTTEITTKALRDE
protein production: not failed
--
residue sequence: MPGTGLPIRGRRDPETIETRCLNNDQDSRLALIHAWLQTLPGSLGLRPETMEPASSDASFRRYFRLQAAAGTLIVMDAPPPHEDVRPFVHIDGLLREAGVNVPEIVAQDAGQGLLLLSDLGQDTFYQRIRAGISDAQLQSMYRDTLATLVRLQQASTAGLPAYDGARLAAELELFPEWYVGRHHGVTLDDKTAAALRQIFGLLAAEGDTGHRVLVHRDFHSPNLMVCDEPRYGPNPGVIDFQDALAGPLTYDLASLVTDARTTWEEPQQLDWAIRYWELARAAGLPVDADFAQFHRAYEWTGLQRNLRILGVFARLNHRDGKSIYLSHMPRVSGYVRQVAQRYGAFAPLLRLLDKLDDRQVQVGYTF
protein production: failed

Kindly consider the entry below.
Noted for `MQTNEHEHVIEVTDLRRVYGGGFEAVRGIDFSVRRGEVFALLGTNGAGKTSTVELLEGLAAPAGGRVRVLGHDPYTERAAVRPRTGVMLQEGGFPSELTVAETARMWAGCVSGARPPAEVLALVGLEAKSGTRVKQLSGGQRRRLDLALALLGDPEVLFLDEPSTGLDAEGRRDTWELVGALRDQGTTVLLTTHYLEEAEHLADRLAIMHDGRIAATGTPAEVTAAQPSHISFELPDGYFVGDLPPLAELGVSDHETDGRTVKLRTRELQRAATGLLVWAAQAAVELRRLDVRSASLEEAFLSIAKQVSARSDGTATDTTEKEYAA` : its protein production reads failed
